Kd values by entry
# test-system: T1, His-HER3 (UniProt P21860 20-643, limits assumed)
# T1 construct: Analyte of the Biacore assay; not shown: His tag
# assay: SPR, Biacore T200, antibody captured on protein A chip, His-HER3 as analyte
Provide only the numeric value, understood in nM.

Consider the following illustrative entries.
[[record]]
binder = "humanized 3F8 antibody hu3F8-3 (antibody, human IgG1, kappa, V domains shown, also called Clone 3; clone-3) VH: QVQLQESGPGLVKPSETLSLTCTVSGYSITSAYYWNWIRQPFGKGLEWMGYISYDGRNNFNPSLKNRVSISRDTSKNQFSLKLSSVTAADTATYYCARDGDYDYFDYWGQGTTVTVSS VL: DIQMTQSPSSLSASVGDRVTITCRASQDISNYLNWYQQKPGKAPKLLIYYTSILHSGVPSRFSGSGSGTDYTFTISSLQPEDIATYFCQQGDTLPPTFGGGTKLEIKR"
numeric_result = 0.54

[[record]]
binder = "humanized 3F8 antibody hu3F8-2 (antibody, human IgG1, kappa, V domains shown, also called Clone 2; clone-2) VH: QVQLQESGPGLVKPSETLSLTCTVSGYSITSAYYWNWIRQPFGKGLEWMGYISYDGRNNFNPSLKNRVTISRDTSKNQFSLKLSSVTAADTAVYYCARDGDYDYFDYWGQGTTVTVSS VL: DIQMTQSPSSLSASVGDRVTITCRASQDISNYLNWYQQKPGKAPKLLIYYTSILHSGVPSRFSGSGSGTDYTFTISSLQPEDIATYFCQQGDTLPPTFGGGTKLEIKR"
numeric_result = 0.492

[[record]]
binder = "chimeric 3F8 antibody (antibody, human IgG1, V domains shown, also called ch3F8; Chimeric antibody) VH: DVQLQESGPGLVKPSQSLSLTCSVTGYSITSAYYWNWIRQFPGDKLEWMGYISYDGRNNFNPSLKNRISITRDTSKNQFFLKLNSVTSGDTATYYCARDGDYDYFDYWGQGTTLTVSS VL: DIQMTQTTSSLSASLGDRVTISCRASQDISNYLNWYQQKPDGTFKLLIYYTSILHSGVPSRFSGSGSGTDYSLTISNLEQEDIATYFCQQGDTLPPTFGAGTKLELK"
numeric_result = 0.624


Next binder, Kd to be filled in.
// Kd value for humanized 3F8 antibody hu3F8-1 (antibody, human IgG1, kappa, V domains shown, also called Clone 1; clone-1) VH: QVQLQESGPGLVKPSETLSLTCTVSGYSITSAYYWNWIRQPPGKGLEWIGYISYDGRNNFNPSLKNRVTISVDTSKNQFSLKLSSVTAADTAVYYCARDGDYDYFDYWGQGTTVTVSS VL: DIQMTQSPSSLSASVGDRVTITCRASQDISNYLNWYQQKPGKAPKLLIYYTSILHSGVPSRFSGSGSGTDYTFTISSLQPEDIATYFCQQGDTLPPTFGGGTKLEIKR : 1.09
